Values compiled from patent US7220875B2.

In this section, each of the compounds is paired with its reported % of Propofol Released from Propofol Prodrugs after 60 min..
# Test summary: Enzymatic cleavage of prodrugs in vitro, human plasma
# Assay type: in vitro ADME
# Condition parameters: substrate 2.0 μM, 37° C.
Property name: % of Propofol Released from Propofol Prodrugs after 60 min. (%)

INSERT INTO assay_data (smiles, assay_value) VALUES
  ('CC(C)c1cccc(C(C)C)c1OC(=O)C[C@H](NC(=O)[C@@H](N)Cc1ccc(O)cc1)C(=O)O', 0),
  ('CC(C)c1cccc(C(C)C)c1OC(=O)C[C@H](NC(=O)[C@H](C)N)C(=O)O', 1),
  ('CSCC[C@H](N)C(=O)N[C@@H](CC(=O)Oc1c(C(C)C)cccc1C(C)C)C(=O)O', 3),
  ('CC(C)c1cccc(C(C)C)c1OC(=O)OC[C@H](NC(=O)[C@H](C)N)C(=O)O', 2),
  ('CC(C)c1cccc(C(C)C)c1OC(=O)CC[C@H](NC(=O)[C@@H](N)CC(N)=O)C(=O)O', 2),
  ('CC(C)c1cccc(C(C)C)c1OC(=O)CC[C@H](N)C(=O)N[C@@H](C)C(=O)O', 44);
